Give measured Kd for each item. Keep answers brief.
# assay target: HER-2/neu extracellular domain (ErbB2) (human, UniProt P04626 23-652)
# assay explanation: electrochemical bead sandwich assay
Unit pM implied. Number only.

# input binder: TTTTTTGCAGCGGTGTGGGGGCAGCGGTGTGGGG (ssDNA) [dimer] ; wanted: its Kd 0.0374

Given GCAGCGGTGTGGGG (ssDNA) [monomer] , state its recorded Kd. 0.121

Quick one: Kd for TTTTTTTTTGCAGCGGTGTGGGG (ssDNA) [monomer-T (monomer-9T)] ? 0.085

Would you kindly share the measured Kd for GCAGCGGTGTGGGGGCAGCGGTGTGGGGGCAGCGGTGTGGGGTTTTT (ssDNA) [trimer] ? 0.0261
